Data provenance: paper PMC8145986

Assay: DPPH radical scavenging assay
Conditions: read-out: IC50 (SD) DPPH
ASSAY ENDPOINT: IC50 (µM)
Numbers only, in µM.

A selection of reference data follows.
{"columns": ["MOLECULE", "ASSAY ENDPOINT", "ENDPOINT UNIT", "VAL"],
 "data": [
  ["Cc1ccc(S(=O)(=O)Nc2ccc(/C=C/c3ccc(Cl)cc3)cc2C(N)=O)cc1 [Compound 3c]", "IC50", "µM", 22.4],
  ["NC(=O)c1cc(/C=C/c2ccccc2)ccc1N [Compound 2a, (E)-2-Amino-5-styrylbenzamide]", "IC50", "µM", 5.8],
  ["O=C1O[C@H]([C@@H](O)CO)C(O)=C1O [Ascorbic acid, reference compound]", "IC50", "µM", 4.18],
  ["COc1ccc(/C=C/c2ccc(N)c(C(N)=O)c2)cc1 [Compound 2d, (E)-2-Amino-5-(4-methoxystyryl)benzamide]", "IC50", "µM", 20.8],
  ["Cc1ccc(S(=O)(=O)Nc2ccc(/C=C/c3ccccc3)cc2C(N)=O)cc1 [Compound 3a]", "IC50", "µM", 19.4]
]}

Answer for every listed entry: what is its IC50? The entries follow.
1. NC(=O)c1cc(/C=C/c2ccc(Cl)cc2)ccc1N [Compound 2c, (E)-2-Amino-5-(4-chlorostyryl)benzamide]
2. NC(=O)c1cc(/C=C/c2ccc(F)cc2)ccc1N [Compound 2b, (E)-2-Amino-5-(4-fluorostyryl)benzamide]
3. COc1ccc(/C=C/c2ccc(NS(=O)(=O)c3ccc(C)cc3)c(C(N)=O)c2)cc1 [Compound 3d]
4. Cc1ccc(S(=O)(=O)Nc2ccc(/C=C/c3ccc(F)cc3)cc2C(N)=O)cc1 [Compound 3b]

1: 11.3; 2: 12.9; 3: 9.1; 4: 25.6
